# Tested on: LOC_OS01G21960-cb002
# TEST DETAILS: thermal shift delta Tm vs DMSO control; higher = stronger stabilization (binding);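 also: purified Escherichia coli-expressed rice kinase domain construct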
# RUN CONDITIONS: 12.5 µM; protein concentration 2 µM
READOUT TYPE: thermal shift delta Tm (°C)

1. Cc1csc(-c2nnc(Nc3ccc(Oc4ncccc4-c4ccnc(N)n4)cc3)c3ccccc23)c1	1.99
2. O=C(Nc1nc2cccc(-c3ccc(CN4CCS(=O)(=O)CC4)cc3)n2n1)C1CC1 [Filgotinib (GLPG0634)]	0.89
3. O=c1cc(N2CCOCC2)oc2c(-c3cccc4c3sc3ccccc34)cccc12	-0.64
4. COc1cc2ncnc(Nc3ccc(O)c(Br)c3)c2cc1OC	0.93
5. C=CC(=O)Nc1cccc(Sc2nc(Nc3ccc(N4CCN(C)CC4)cc3)ncc2Cl)c1	0.88

---

# System: LOC_OS01G63280-cb003
# TEST DETAILS: thermal shift delta Tm vs DMSO control; higher = stronger stabilization (binding)
# RUN CONDITIONS: 12.5 µM; protein concentration 2 µM
Quick rule: thermal shift delta Tm of at least 0.9 °C means criterion met, below that means criterion not met.

1. NC(=O)c1ccc(N(C(N)=O)c2c(F)cccc2F)nc1-c1ccc(F)cc1F	criterion not met
2. NCC(=O)Nc1ccc(-n2nc(C(F)(F)F)cc2-c2ccc3c(ccc4ccccc43)c2)cc1	criterion met
3. Cc1ccc(CNc2ncnc3ccc(-c4ccc(CO)o4)cc23)o1	criterion not met
4. NC(=O)Nc1cc(-c2cccc(F)c2)sc1C(=O)N[C@H]1CCCNC1	criterion not met
5. Cn1cc(-c2ccc(F)c(C(F)(F)F)c2)nc1C1CCN(c2ncnc3[nH]ncc23)CC1	criterion not met
6. CCN1C(=O)CNc2ncc(-c3ccc(-c4nc[nH]n4)nc3C)nc21	criterion not met
7. COCCOc1ccc2c(c1)ncn2-c1ccc2cccc(N3CCC(N)CC3)c2n1	criterion met
8. COc1cc(Nc2ncc3c(n2)-c2ccc(Cl)cc2C(c2c(F)cccc2OC)=NC3)ccc1C(=O)O	criterion not met

---

# Test system: LOC_OS01G57100-cb003
# TEST DETAILS: thermal shift delta Tm vs DMSO control; higher = stronger stabilization (binding)
# RUN CONDITIONS: 12.5 µM; protein concentration 2 µM
Quick rule: thermal shift delta Tm of at least 1 °C means class 1, below that means class 0.

1. COc1cccc2cc(-c3nc([C@H]4CC[C@H](C(=O)O)CC4)n4ncnc(N)c34)[nH]c12	class 1
2. Nc1cccc(S(=O)(=O)N2CCCN(S(=O)(=O)c3ccc4c(c3)OCCO4)CC2)c1	class 0
3. CCc1nc(-c2cccc(C)c2)c(-c2ccnc(NC(=O)c3ccccc3)c2)s1	class 0
4. CCN(CC)CCNC(=O)c1c(C)[nH]c(/C=C2\C(=O)Nc3ccc(F)cc32)c1C	class 0
5. CN(C)C/C=C/C(=O)Nc1cc2c(Nc3ccc(F)c(Cl)c3)ncnc2cc1O[C@H]1CCOC1 [Afatinib (BIBW2992) Dimaleate]	class 0
6. CC(C)(C)c1nc(-c2cccc(NS(=O)(=O)c3c(F)cccc3F)c2F)c(-c2ccnc(N)n2)s1	class 1
7. O=c1cc(N2CCOCC2)oc2c1ccc1ccccc12	class 0
8. Cc1ccc(F)c(NC(=O)Nc2ccc(-c3cccc4[nH]nc(N)c34)cc2)c1	class 0
9. C[C@H](Nc1ncnc2[nH]cnc12)c1cc2ccc(F)cc2nc1-c1ccccn1	class 1
10. O=c1nc(N2CCOCC2)oc2c(-c3cccc4c3sc3ccccc34)cccc12	class 1
